A short record of pIC50 observed with Adenosine A2a (ADORA2A) receptor (Homo sapiens (Human)) follows.
Sequence (P29274 whole entry): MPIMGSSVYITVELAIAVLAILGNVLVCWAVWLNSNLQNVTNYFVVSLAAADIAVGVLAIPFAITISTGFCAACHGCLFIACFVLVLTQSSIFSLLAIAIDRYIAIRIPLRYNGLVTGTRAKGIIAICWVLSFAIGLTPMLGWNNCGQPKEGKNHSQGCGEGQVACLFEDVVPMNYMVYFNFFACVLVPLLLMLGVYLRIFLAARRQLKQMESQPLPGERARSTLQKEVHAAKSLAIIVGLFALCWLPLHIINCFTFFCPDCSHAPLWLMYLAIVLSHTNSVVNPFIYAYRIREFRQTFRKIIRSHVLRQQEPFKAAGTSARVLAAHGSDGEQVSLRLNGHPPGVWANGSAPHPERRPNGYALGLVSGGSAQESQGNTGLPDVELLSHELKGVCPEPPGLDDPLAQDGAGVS
pIC50: −log10 of the molar value.

Please review the following examples before continuing.
INSERT INTO measurements (molecule, assay_value) VALUES
  ('O=C(Nc1cc2nc(C(F)F)nn2c(-c2ccco2)n1)C1CC1 [Compound 148]', '> 8.00'),
  ('Cc1nc2cc(NC(=O)C3COC3)nc(-c3ccc(C)o3)n2n1 [Compound 60]', '> 8.00'),
  ('Cc1nc2cc(NC(=O)C3CC3)nc(-c3cccc(F)c3)n2n1 [Compound 131]', '> 8.00'),
  ('Cc1nc2cc(NC(=O)C3CC3)nc(-c3ccc(S(=O)(=O)N(C)C)cc3)n2n1 [Compound 116]', '< 6.00');

// query Need pIC50, item Cc1cn2cc(N)nc(-c3ccc(C)o3)c2n1 [Compound 200]
// result 6.00 to 7.00

###

A short record of IC50 observed with Adenosine A2a (ADORA2A) receptor (Homo sapiens (Human)) follows.

INSERT INTO results (mol, assay_value) VALUES
  ('Cc1nc2cc(NC(=O)C3CC3)nc(-c3ccc(S(C)(=O)=O)cc3)n2n1', '> 1000 nM'),
  ('CC(=O)Nc1cc2nc(C)nn2c(-c2cnn(C)c2)n1', '> 1000 nM'),
  ('CNc1nc(-c2ccc(C)o2)n2nc(C)nc2c1Cl', '100 to 1000 nM');

// query Need IC50, item Cc1nc2c(Cl)c(N)nc(-c3ccc(F)cc3)n2n1
// result 10 to 100 nM

// query Please do the same for Cc1nc2c(Br)c(N)nc(-c3ccc(F)cc3)n2n1 as well.
// result 10 to 100 nM

// query Please do the same for Cc1nc2cc(NC(=O)C(F)(F)F)nc(-c3ccco3)n2n1 as well.
// result 10 to 100 nM

// query Please do the same for Cc1ccc(-c2nc(NC(=O)C3CC3)cn3cc(C(C)C)nc23)o1 as well.
// result < 10 nM

// query Please do the same for Cc1nc2cc(NC(=O)C3CC3)nc(-c3ccc(C#N)cc3)n2n1 as well.
// result 100 to 1000 nM

// query Please do the same for CCc1nc2cc(NC(=O)C3CC3)nc(-c3ccc(C)o3)n2n1 as well.
// result < 10 nM

###

A short record of pIC50 observed with Adenosine A2a (ADORA2A) receptor (Homo sapiens (Human)) follows.
pIC50: −log10 of the molar value.

INSERT INTO assay_data (mol, assay_value) VALUES
  ('Cc1nc2cc(NC(N)=O)nc(-c3ccco3)n2n1', '7.00 to 8.00'),
  ('CC(=O)c1cccc(-c2nc(N)cc3nc(C)nn23)c1', '< 6.00'),
  ('CC(C)c1nc2cc(NC(=O)C3CC3)nc(-c3ccco3)n2n1', '> 8.00'),
  ('CC(C)c1cn2c(Cl)c(N)nc(-c3ccccc3)c2n1', '7.00 to 8.00');

Attention now shifts to the item below.
// query Need pIC50, item Cc1nc2cc(NC(=O)C3CC3)nc(-c3ccc(S(=O)(=O)O)cc3)n2n1
// result < 6.00

###

target: Adenosine A2a (ADORA2A) receptor (Homo sapiens (Human))
pIC50: −log10 of the molar value.
Reported Property: pIC50

INSERT INTO measurements (mol, assay_value) VALUES
  ('CC(=O)Nc1cc2nc(C)nn2c(-c2cccc(C(C)=O)c2)n1', '< 6.00');

// query Need pIC50, item Cc1nc2c(F)c(N)nc(-c3ccc(C)o3)n2n1
// result > 8.00

// query Please do the same for Cc1nc2c(Cl)c(N)nc(-c3cccc(Cl)c3)n2n1 as well.
// result > 8.00

// query Please do the same for Cc1ccc(-c2nc3[nH]ncc3c3nc(C(C)C)nn23)o1 as well.
// result > 8.00

// query Please do the same for Cc1nc2cc(NC(=O)NCC(C)C)nc(-c3ccco3)n2n1 as well.
// result > 8.00

// query Please do the same for CC(=O)Nc1cc2nc(C(F)(F)F)nn2c(-c2ccc(C)o2)n1 as well.
// result > 8.00

// query Please do the same for Cc1nc2c(C#N)c(N)nc(-c3ccc(C)o3)n2n1 as well.
// result > 8.00

Data origin: patent US11718622B2
